List of IC50 (µg/ml) with constrains values.
target: HIV Env of isolate WITO4160.33 (clade B) (HIV); experiment: cell-based or functional assay
Provide the reading as a plain figure in µg/mL.

>>> meas_value("PGDM1400 (antibody, V domains shown) VH: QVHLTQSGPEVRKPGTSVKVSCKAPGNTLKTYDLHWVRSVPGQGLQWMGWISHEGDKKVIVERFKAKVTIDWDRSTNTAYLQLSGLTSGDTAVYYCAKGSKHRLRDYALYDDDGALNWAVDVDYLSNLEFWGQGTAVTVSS VL: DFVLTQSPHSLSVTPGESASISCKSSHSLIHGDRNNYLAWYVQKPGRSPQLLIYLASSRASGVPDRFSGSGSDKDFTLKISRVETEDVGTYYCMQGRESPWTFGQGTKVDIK")
0.003
>>> meas_value("ePGDM13 (antibody, V domains shown) VH: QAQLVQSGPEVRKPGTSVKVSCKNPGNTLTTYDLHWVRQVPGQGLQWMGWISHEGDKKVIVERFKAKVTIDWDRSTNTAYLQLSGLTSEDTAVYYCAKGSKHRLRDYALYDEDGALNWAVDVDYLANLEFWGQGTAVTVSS VL: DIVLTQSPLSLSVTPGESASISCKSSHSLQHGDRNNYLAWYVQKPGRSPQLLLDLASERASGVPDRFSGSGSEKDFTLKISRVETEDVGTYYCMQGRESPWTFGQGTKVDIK")
0.003

Field request: IC50 (µg/ml) with constrains | item: ePGDM9 (antibody, V domains shown) VH: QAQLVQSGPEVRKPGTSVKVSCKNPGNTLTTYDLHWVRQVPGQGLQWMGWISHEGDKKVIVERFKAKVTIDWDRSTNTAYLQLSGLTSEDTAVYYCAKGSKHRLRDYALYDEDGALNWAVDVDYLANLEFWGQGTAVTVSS VL: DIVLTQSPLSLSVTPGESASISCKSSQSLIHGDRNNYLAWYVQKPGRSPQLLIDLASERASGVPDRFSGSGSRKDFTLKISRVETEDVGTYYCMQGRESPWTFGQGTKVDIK
0.002
